# Test system: arachidonic acid (AA) induced ear edema
# assayProtocol: Arachidonic acid (AA) induced ear edema model
# Format: in vivo, mice
# appliedConditions: 10 μg subcutaneously 20 minutes before induction of edema
So I've got a bunch of substances here, and I need their Peak reduction (%) AA values.
State the answer as a number, implicitly in %.

stdin: Kindly state the measured Peak reduction (%) AA obtained for T*C*C*GATCGTCC*A*G*G (TCCGATCGTCCAGG; DNA, linkages s3 o7 s3 (s phosphorothioate, o phosphodiester), methylation of C not given here) [IDX9078] with arachidonic acid (AA) induced ear edema.
stdout: −16.4

stdin: Kindly state the measured Peak reduction (%) AA obtained for G*G*G*GCGTCTGCC*G*G*G (GGGGCGTCTGCCGGG; DNA, linkages s3 o8 s3 (s phosphorothioate, o phosphodiester), methylation of C not given here) [IDX9051, oligonucleotide; * = phosphorothioate modification] with arachidonic acid (AA) induced ear edema.
stdout: −17.7

---

So I've got a bunch of substances here, and I need their AUC reduction (%) AA values.
# Test system: arachidonic acid (AA) induced ear edema
# assayProtocol: Arachidonic acid (AA) induced ear edema model
# Type: in vivo, mice
# appliedConditions: 10 μg one single s.c. injection 20 minutes before AA; compared to PBS control
State the answer as a number, implicitly in %.

stdin: Kindly state the measured AUC reduction (%) AA obtained for G*G*G*GCGTCTGCC*G*G*G (GGGGCGTCTGCCGGG; DNA, linkages s3 o8 s3 (s phosphorothioate, o phosphodiester), methylation of C not given here) [IDX9051, oligonucleotide; * = phosphorothioate modification] with arachidonic acid (AA) induced ear edema.
stdout: −67.5

stdin: Kindly state the measured AUC reduction (%) AA obtained for T*C*C*CAAGATCGTCC*A*G*G (phosphorothioate linkages, as printed in the source, key not given here) [IDX9076, oligonucleotide; * = phosphorothioate modification] with arachidonic acid (AA) induced ear edema.
stdout: −45.7

stdin: Kindly state the measured AUC reduction (%) AA obtained for T*G*C*CATTCGTCGATTTCGTC*G*A*T (TGCCATTCGTCGATTTCGTCGAT; DNA, linkages s3 o16 s3 (s phosphorothioate, o phosphodiester), methylation of C not given here) [IDX9025, oligonucleotide; * = phosphorothioate modification] with arachidonic acid (AA) induced ear edema.
stdout: −81.9

stdin: Kindly state the measured AUC reduction (%) AA obtained for T*G*C*CATTCGTCGTTCTCGTC*G*T*T (phosphorothioate linkages, as printed in the source, key not given here) [IDX9024, oligonucleotide; * = phosphorothioate modification] with arachidonic acid (AA) induced ear edema.
stdout: −58.5

stdin: Kindly state the measured AUC reduction (%) AA obtained for T*C*C*GATCGTCC*A*G*G (TCCGATCGTCCAGG; DNA, linkages s3 o7 s3 (s phosphorothioate, o phosphodiester), methylation of C not given here) [IDX9078] with arachidonic acid (AA) induced ear edema.
stdout: −79.4

stdin: Kindly state the measured AUC reduction (%) AA obtained for G*G*A*ACAGTTCGTCCAT*G*G*C (phosphorothioate linkages, as printed in the source, key not given here) [IDX0150, oligonucleotide used as control; * = phosphorothioate modification] with arachidonic acid (AA) induced ear edema.
stdout: −89.4

---

# Tested on: tetradecanoylphorbol 13-acetate (TPA) induced ear edema
# assayProtocol: TPA-induced ear edema model
# Assay type: in vivo, mice
# appliedConditions: 10 μg one single s.c. injection 20 minutes before TPA; compared to PBS control
propertyMeasured: AUC reduction (%) TPA
State the answer as a number, implicitly in %.

stdin: I have this substance here, T*G*C*CATTCGTCGTTCTCGTC*G*T*T (phosphorothioate linkages, as printed in the source, key not given here) [IDX9024, oligonucleotide; * = phosphorothioate modification] , and I need its recorded AUC reduction (%) TPA.
stdout: −47.3

stdin: I have this substance here, T*C*C*ATGGTCAGGGTCCCGG*G*G*G (TCCATGGTCAGGGTCCCGGGGG; DNA, linkages s3 o15 s3 (s phosphorothioate, o phosphodiester), methylation of C not given here) [IDX9064, oligonucleotide; * = phosphorothioate modification] , and I need its recorded AUC reduction (%) TPA.
stdout: −59.7
